Measured log10(TGI), listed per entry.
System: MDA-N
Procedure details: NCI tumour cell line growth inhibition, 48 h
Base-10 log of TGI, unit µM.

Would you please look over these solved cases?
CN(C)CCCSc1nc2c(c(=N)n1-c1ccccc1)c(=S)n(-c1ccccc1)c(=S)n2-c1ccccc1 ... 0.50
O=C(CCCN1CCC(Nc2ccccc2)(c2nnnn2C2CCCCC2)CC1)c1ccc(F)cc1 ... 1.26
Cc1ccc(-c2cc3c4c(nc5ccccc53)C(=O)c3cccnc3-c4n2)cc1 ... 1.01
O=C(/C=C/c1ccc(C(F)(F)F)cc1)c1c([O-])on[n+]1-c1ccccc1 ... 0.94
Cc1c2c(OCC(O)CN3CCN(c4ccccc4)CC3)nn(C)c(=O)c2c(C)n1-c1ccccc1 (centres undefined) ... 1.55

Turning now to a further record.
Challenge: Give the measured log10(TGI) of C=C1CCCC(C)(C)C1CCC1(C)CCC(C(C)C(=O)OC)OO1 (centres undefined) .
Response given: 0.87

###

Tested on: PC-3 prostate
Procedure details: NCI tumour cell line growth inhibition, 48 h
Measured TGI, listed per entry.

Would you please look over these solved cases?
C[C@@H]1CCC([C@@H](C)[C@H]2CC[C@H]3[C@@H]4CC[C@H]5C[C@@H](O)CC[C@]5(C)[C@H]4CC[C@]23C)=NC1 ... > 100 µM
O=c1cc(CSc2c(-c3ccccc3)c(=O)n(-c3ccccc3)c(=S)n2-c2ccccc2)[nH]c(=O)[nH]1 ... > 100 µM
COc1cc2c(cc1Cc1cccc(Cl)c1F)c(=O)c(C(=O)O)cn2[C@@H](CO)C(C)C ... 9.21 µM
COc1cc2oc(-c3ccc4c(c3)OCO4)c(OC)c(=O)c2c(OC)c1O ... > 100 µM
O=C(O)c1cc2c(cc1CC(Cc1ccc3c(c1)CCCC3)C(=O)O)CCCC2 (configuration not stated) ... > 100 µM

Turning now to a further record.
Challenge: Give the measured TGI of `CC1=NN(c2ccc(S(=O)(=O)O)cc2)C(=O)/C1=C/c1ccc(Cl)cc1` .
Response given: > 100 µM

###

System: HT29 colon
Procedure details: NCI tumour cell line growth inhibition, 48 h
Measured TGI, listed per entry.

Would you please look over these solved cases?
Cn1nc(C(F)(F)F)cc1-c1c[nH]c(OCc2ccc(Cl)cc2)c(-c2ccc(Cl)c(C(F)(F)F)c2)c1=O ... > 47.5 µM
S=C(NCCNC(=S)[S][Sn]([c]1ccccc1)([c]1ccccc1)[c]1ccccc1)[S][Sn]([c]1ccccc1)([c]1ccccc1)[c]1ccccc1 ... 0.0584 µM
CCOC(=O)C(N=C(c1ccccc1)c1ccccc1)N(C(=O)OC(C)(C)C)C(=O)OC(C)(C)C (centres undefined) ... > 100 µM
CC(C)C(=O)CC(c1ccc(Cl)cc1)N1N=C(C(C)C)CC1c1ccc(Cl)cc1 (centres undefined) ... > 100 µM

Challenge: Give the measured TGI of `C=C1C(=O)O[C@H]2[C@H]1CC/C(C=Nc1c(N)cc(C(F)(F)F)cc1C(F)(F)F)=C\CC[C@@]1(C)O[C@@H]21` .
Response given: 3.1 µM

Challenge: Give the measured TGI of `OCCCNc1ncnc2[nH]ncc12` .
Response given: > 100 µM

Challenge: Give the measured TGI of `N/C(=N/N=C/c1ccccc1)N/N=C\c1ccccc1` .
Response given: 52 µM

Challenge: Give the measured TGI of `Cc1cc(Nc2ncc3c(n2)N(C)C(=O)N(c2cc(NC(=O)c4cccc(C(F)(F)F)c4)ccc2C)C3)n(C)n1` .
Response given: 0.0864 µM

Challenge: Give the measured TGI of `O=c1cc(CSc2c(-c3ccccc3)c(=O)n(-c3ccccc3)c(=S)n2-c2ccccc2)[nH]c(=O)[nH]1` .
Response given: > 100 µM

###

Tested on: HL-60(TB) leukemia
Procedure details: NCI tumour cell line growth inhibition, 48 h
Readout type: TGI

Would you please look over these solved cases?
COC(=O)C(C)(C)[C@@H]1OC(=O)N(S(=O)(=O)c2c(C)cc(C)cc2C)[C@H]1C(C)C ... 84.5 µM
CC(C)(C)OC(=O)NC(Cc1ccc(O)cn1)C(=O)O (stereo unspecified) ... > 100 µM
O=C(CCCN1CCC2(CC1)CC(=O)N(N1CCOCC1)C2=O)c1ccc(F)cc1 ... > 100 µM
CCOC(=O)C1(N)CCc2[nH][nH]c(=O)c2C1 (stereo unspecified) ... > 100 µM
COC(=O)c1ccccc1CC(Cc1ccc2c(c1)CCC2)C(=O)OC (stereo unspecified) ... > 100 µM

Challenge: Give the measured TGI of `CCOC(=O)Cc1csc(Nc2ccc(OCC)cc2)n1` .
Response given: > 100 µM

Challenge: Give the measured TGI of `O=C(CCCN1CCC(Nc2ccccc2)(c2nnnn2C2CCCCC2)CC1)c1ccc(F)cc1` .
Response given: 29.6 µM

Challenge: Give the measured TGI of `c1ccc2cc(NCNc3ccc4ccccc4c3)ccc2c1` .
Response given: 3.79 µM

Challenge: Give the measured TGI of Cn1cc(C2=C(c3c4n(c5ccccc35)CCC(CN)C4)C(=O)NC2=O)c2ccccc21 (stereo unspecified) .
Response given: 8.77 µM

Challenge: Give the measured TGI of `C[Si](C)(N[Si](C)(C)OCCc1ccccc1)OCCc1ccccc1` .
Response given: > 100 µM

Challenge: Give the measured TGI of `N#CCCCCCOCCOCCOCCOCCOCCCCCC#N` .
Response given: > 100 µM

###

System: NCI-H522 lung
Procedure details: NCI tumour cell line growth inhibition, 48 h; in the data active = GI50 below about 0.43 µM; inactive = the rest
Where a SMILES comes first, the peptide text is derived from it. Bridges are numbered along the chain shown (N, C = ends). [ ]: non-standard residue; d: D form. The star is where a group is joined. ξ: configuration not given here. ξDab(CH2SO3H) = NC(CCNCS(=O)(=O)O)C(=O)O; Heptanoyl(6-Me) = CC(C)CCCCC(=O)*; Dab = NCC[CH](N)C(=O)O
Give one outcome, nothing more. List: 1.0 for active, 0.0 for inactive

CN1CCC2(CC1)NC(=O)c1c(c3ccc(Cl)c(Cl)c3n1C)C2C#N (stereo unspecified) ... 0.0
CCC(C)C1NC(=O)C(CCNCS(=O)(=O)O)NC(=O)C(NC(=O)C(CCNCS(=O)(=O)O)NC(=O)C(NC(=O)C(CCNCS(=O)(=O)O)NC(=O)CCCCC(C)C)C(C)O)CCNC(=O)C(C(C)O)NC(=O)C(CCNCS(=O)(=O)O)NC(=O)C(CCNCS(=O)(=O)O)NC(=O)C(C(C)CC)NC1=O (stereo unspecified) ({Heptanoyl(6-Me)}-[ξDab(CH2SO3H)]T[ξDab(CH2SO3H)][Dab][ξDab(CH2SO3H)]II[ξDab(CH2SO3H)][ξDab(CH2SO3H)]T; lactam 4-C; configuration not given here) ... 0.0
Cc1ccc2c(c1)c(Sc1ccc(C(=O)NO)cc1)c1n2CN(C)CC1 ... 0.0
Clc1ccc(Nc2ccnc(N3CCN(c4ccnc5cc(Cl)ccc45)CC3)n2)cc1 ... 0.0
[Cl][Hg][c]1ccc(Cl)s1 ... 1.0

As a next step, examine the compound that follows.
Challenge: I would be grateful if you could indicate the recorded call for O=C([O][Hg][CH2]C1OCCOC1[CH2][Hg][O]C(=O)c1ccccc1)c1ccccc1 (stereo unspecified) .
Response given: 1.0

###

System: SF-268 CNS
Procedure details: NCI tumour cell line growth inhibition, 48 h
Measured TGI, listed per entry.

Cc1ccc(NC(=O)c2cc3ccccc3c(N=Nc3cc(S(=O)(=O)O)ccc3O)c2O)c(C)c1 ... > 100 µM

Challenge: Give the measured TGI of `C(=N\Nc1ccccc1)/c1nc2ccccc2nc1/C=N/Nc1ccccc1` .
Response given: 29.3 µM

Challenge: Give the measured TGI of NC1CCCCC1N.O=[Se]([O-])[O-].[Pt+4] (stereo not given) .
Response given: > 76.8 µM

Challenge: Give the measured TGI of O=[N+]([O-])c1ccc(C2CC(c3ccccc3)=Nc3ccccc3S2)cc1 (stereo not given) .
Response given: > 100 µM

Challenge: Give the measured TGI of `CCc1nc(N)nc(N)c1-c1ccc2nnn(O)c2c1` .
Response given: > 100 µM

Challenge: Give the measured TGI of `S=C(NCCNC(=S)[S][Sn]([c]1ccccc1)([c]1ccccc1)[c]1ccccc1)[S][Sn]([c]1ccccc1)([c]1ccccc1)[c]1ccccc1` .
Response given: 0.123 µM

Challenge: Give the measured TGI of `O=C(/C=C/c1ccc(C(F)(F)F)cc1)c1c([O-])on[n+]1-c1ccccc1` .
Response given: > 26.2 µM

Challenge: Give the measured TGI of CC1CC/C(=C\c2ccc(N(C)C)cc2)C2=C1C(c1ccc(N(C)C)cc1)NC(=S)N2 (stereo not given) .
Response given: > 100 µM

Challenge: Give the measured TGI of CCCCNC(=O)C1C(=O)N(CCCC)C(=O)/C1=N\N (stereo not given) .
Response given: > 100 µM

Challenge: Give the measured TGI of `COc1ccc2c(c1)oc(=O)c1cc(OC)ccc12` .
Response given: > 100 µM
